# credit: patent US20100061982A1

Assay: Buffer Stability (37° C.)
Details: SIF
Here, each record is paired with measured Buffer Stability (37° C.) % Remaining (at 16-23 hours) SIF data.
METRIC: Buffer Stability (37° C.) % Remaining (at 16-23 hours) SIF (%)

MOLECULAR STRING: COc1ccc2c(c1)c(/C=C1\Oc3cc(OC(=O)N(C)c4ccccc4)cc(OC(=O)N(C)c4ccccc4)c3C1=O)cn2CCCN(C)C
UNITS TEXT: %
VALUE REPORTED: 100

MOLECULAR STRING: COc1ccc2c(c1)c(/C=C1\Oc3cc(OC(=O)N(C(C)C)C(C)C)cc(OC(=O)N(C(C)C)C(C)C)c3C1=O)cn2CCCN(C)C
UNITS TEXT: %
VALUE REPORTED: 100

MOLECULAR STRING: COc1ccc2c(c1)c(/C=C1\Oc3cc(O)cc(O)c3C1=O)c(C)n2CCN1CCN(C)CC1
UNITS TEXT: %
VALUE REPORTED: 63

MOLECULAR STRING: COc1ccc2c(c1)c(/C=C1\Oc3cc(OC(=O)CC(C)C)cc(OC(=O)CC(C)C)c3C1=O)cn2CCCN(C)C
UNITS TEXT: %
VALUE REPORTED: 0

* * *

Molecular target: UniProt:P42336
Sequence (P42336 whole entry, species assumed): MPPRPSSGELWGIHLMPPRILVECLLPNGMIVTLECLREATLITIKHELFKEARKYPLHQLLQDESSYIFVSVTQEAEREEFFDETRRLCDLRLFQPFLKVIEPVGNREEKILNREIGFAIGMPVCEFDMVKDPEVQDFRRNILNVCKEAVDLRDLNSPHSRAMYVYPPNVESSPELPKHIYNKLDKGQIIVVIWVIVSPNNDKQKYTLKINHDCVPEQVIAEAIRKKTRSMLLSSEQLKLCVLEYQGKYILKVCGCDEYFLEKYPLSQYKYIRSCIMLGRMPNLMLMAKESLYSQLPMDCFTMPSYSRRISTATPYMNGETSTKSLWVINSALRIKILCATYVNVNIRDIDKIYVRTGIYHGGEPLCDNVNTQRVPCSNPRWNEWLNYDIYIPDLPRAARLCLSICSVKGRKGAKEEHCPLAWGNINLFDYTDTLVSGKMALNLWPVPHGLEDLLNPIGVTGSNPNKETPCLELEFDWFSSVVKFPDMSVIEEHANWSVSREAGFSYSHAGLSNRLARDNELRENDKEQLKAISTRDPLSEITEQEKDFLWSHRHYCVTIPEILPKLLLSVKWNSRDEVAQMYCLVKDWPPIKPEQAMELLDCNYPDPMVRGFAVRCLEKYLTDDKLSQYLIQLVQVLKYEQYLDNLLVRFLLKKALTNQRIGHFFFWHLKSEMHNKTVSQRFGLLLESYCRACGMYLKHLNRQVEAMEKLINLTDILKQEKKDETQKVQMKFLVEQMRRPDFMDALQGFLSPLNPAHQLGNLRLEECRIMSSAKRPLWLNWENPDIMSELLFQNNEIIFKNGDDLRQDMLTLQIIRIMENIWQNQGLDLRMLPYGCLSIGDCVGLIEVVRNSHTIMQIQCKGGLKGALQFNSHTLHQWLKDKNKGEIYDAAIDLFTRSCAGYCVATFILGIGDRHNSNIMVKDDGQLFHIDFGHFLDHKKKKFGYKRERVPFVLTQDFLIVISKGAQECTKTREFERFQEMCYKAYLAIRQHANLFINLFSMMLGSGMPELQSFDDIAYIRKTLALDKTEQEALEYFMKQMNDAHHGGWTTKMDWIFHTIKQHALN
Sequence (P27986 whole entry partner, species assumed): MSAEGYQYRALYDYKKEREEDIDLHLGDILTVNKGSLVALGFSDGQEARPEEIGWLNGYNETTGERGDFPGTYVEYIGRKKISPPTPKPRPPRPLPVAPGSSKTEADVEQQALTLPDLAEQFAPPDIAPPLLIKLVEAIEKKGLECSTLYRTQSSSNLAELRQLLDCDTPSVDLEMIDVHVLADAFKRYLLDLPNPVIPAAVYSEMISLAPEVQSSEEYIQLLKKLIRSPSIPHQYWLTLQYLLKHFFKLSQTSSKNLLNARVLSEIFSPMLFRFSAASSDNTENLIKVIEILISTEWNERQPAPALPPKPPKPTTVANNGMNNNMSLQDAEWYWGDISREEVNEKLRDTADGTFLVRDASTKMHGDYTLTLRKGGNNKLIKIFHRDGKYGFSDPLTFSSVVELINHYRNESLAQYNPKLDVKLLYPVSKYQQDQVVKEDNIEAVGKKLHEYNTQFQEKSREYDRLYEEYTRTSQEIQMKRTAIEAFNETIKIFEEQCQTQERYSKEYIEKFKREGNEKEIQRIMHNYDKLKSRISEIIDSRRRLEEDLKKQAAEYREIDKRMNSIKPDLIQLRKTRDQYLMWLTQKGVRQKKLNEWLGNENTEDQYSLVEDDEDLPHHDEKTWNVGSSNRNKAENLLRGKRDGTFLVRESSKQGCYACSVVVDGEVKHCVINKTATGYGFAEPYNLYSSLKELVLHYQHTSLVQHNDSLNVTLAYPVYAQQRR
Experiment: PI3K-alpha Fluorescence Polarization Assay
Format: biochemical
Conditions: read-out: PI3K alpha Mean IC50
METRIC: log10 IC50 (log10 of the value in nM)

MOLECULAR STRING: COc1ccc2c(c1)c(/C=C1\Oc3cc(OC(C)=O)cc(OC(C)=O)c3C1=O)cn2CCCN(C)C
log10 IC50: 1.91

MOLECULAR STRING: COc1ccc2[nH]c(-c3ccccc3)c(/C=C3\Oc4cc(OC(=O)C(C)(C)C)cc(OC(=O)C(C)(C)C)c4C3=O)c2c1
log10 IC50: 3.44

MOLECULAR STRING: COc1ccc2c(c1)c(/C=C1\Oc3cc(OC(=O)c4ccccc4)cc(OC(=O)c4ccccc4)c3C1=O)c(C)n2CCN1CCN(C)CC1
log10 IC50: 3.93

MOLECULAR STRING: COc1ccc2[nH]c(-c3ccccc3)c(/C=C3\Oc4cc(OC(C)=O)cc(OC(C)=O)c4C3=O)c2c1
log10 IC50: 0.30

MOLECULAR STRING: COc1ccc2c(c1)c(/C=C1\Oc3cc(O)ccc3C1=O)c(C)n2CCN1CCN(C)CC1
log10 IC50: 1.09

MOLECULAR STRING: COc1ccc2[nH]c(-c3ccccc3)c(/C=C3\Oc4cc(OC(=O)Oc5ccccc5)ccc4C3=O)c2c1
log10 IC50: 2.26

* * *

Assay: Microsome Stability (15 min), nude mouse
Assay type: in vitro ADME
Settings: microsomes, Phase I (NADPH), read-out: Microsome Stability (15 min) T ½ Phase I nude mouse
METRIC: half-life (min)

MOLECULAR STRING: CN(C)C(=O)Oc1cc(OC(=O)N(C)C)c2c(c1)O/C(=C\c1cn(C)c3cccc(-c4ccccc4)c13)C2=O
QUALIFIER OPERATOR: =
VALUE REPORTED: 14
//
MOLECULAR STRING: CCOP(=O)(OCC)Oc1cc2c(c(OP(=O)(OCC)OCC)c1)C(=O)/C(=C/c1cn(CCCN(C)C)c3ccc(OC)cc13)O2
QUALIFIER OPERATOR: =
VALUE REPORTED: 15
//
MOLECULAR STRING: COc1ccc2[nH]c(-c3ccccc3)c(/C=C3\Oc4cc(OC(=O)N(c5ccccc5)c5ccccc5)ccc4C3=O)c2c1
QUALIFIER OPERATOR: >
VALUE REPORTED: 30
//
MOLECULAR STRING: CN(C)C(=O)Oc1cccc2c1C(=O)/C(=C/c1cn(C)c3nccc(N4CC5CCC(C4)O5)c13)O2
QUALIFIER OPERATOR: =
VALUE REPORTED: 4
//
MOLECULAR STRING: COc1ccc2c(c1)c(/C=C1\Oc3cc(OC(=O)N(C)C)cc(OC(=O)N(C)C)c3C1=O)cn2CCCN(C)C
QUALIFIER OPERATOR: =
VALUE REPORTED: 23
//
MOLECULAR STRING: COc1ccc2c(c1)c(/C=C1\Oc3cc(OC(=O)N(C(C)C)C(C)C)cc(OC(=O)N(C(C)C)C(C)C)c3C1=O)cn2CCCN(C)C
QUALIFIER OPERATOR: =
VALUE REPORTED: 21
//
MOLECULAR STRING: CN(C)C(=O)Oc1cc(OC(=O)N(C)C)c2c(c1)O/C(=C\c1cn(C)c3nccc(-c4ccccc4)c13)C2=O
QUALIFIER OPERATOR: =
VALUE REPORTED: 12

* * *

Assay: Microsome Stability (15 min), rat
Type: in vitro ADME
Details: microsomes, Phase I (NADPH), read-out: Microsome Stability (15 min) T ½ Phase I rat
half-life: recorded values

MOLECULAR STRING: COc1ccc2c(c1)c(/C=C1\Oc3cc(O)ccc3C1=O)cn2CCCN(C)C
UNITS TEXT: min
half-life: 12

MOLECULAR STRING: COc1ccc2c(c1)c(/C=C1\Oc3cc(O)cc(O)c3C1=O)cn2CCCN(C)C
UNITS TEXT: min
half-life: 6

MOLECULAR STRING: CCOP(=O)(OCC)Oc1cc2c(c(OP(=O)(OCC)OCC)c1)C(=O)/C(=C/c1c(-c3ccccc3)[nH]c3ccc(OC)cc13)O2
UNITS TEXT: min
half-life: 7

MOLECULAR STRING: CN(C)C(=O)Oc1cccc2c1C(=O)/C(=C/c1cn(C)c3nccc(N4CC5CCC(C4)O5)c13)O2
UNITS TEXT: min
half-life: 3

MOLECULAR STRING: COc1ccc2[nH]c(-c3ccccc3)c(/C=C3\Oc4cc(OP(=O)(O)O)ccc4C3=O)c2c1
UNITS TEXT: min
half-life: 19

MOLECULAR STRING: COc1ccc2[nH]c(-c3ccccc3)c(/C=C3\Oc4cc(O)ccc4C3=O)c2c1
UNITS TEXT: min
half-life: 18

MOLECULAR STRING: COc1ccc2c(c1)c(/C=C1\Oc3cc(OC(=O)c4ccccc4)cc(OC(=O)c4ccccc4)c3C1=O)c(C)n2CCN1CCN(C)CC1
UNITS TEXT: min
half-life: 10

MOLECULAR STRING: CCOP(=O)(OCC)Oc1cc2c(c(OP(=O)(OCC)OCC)c1)C(=O)/C(=C/c1cn(CCCN(C)C)c3ccc(OC)cc13)O2
UNITS TEXT: min
half-life: 12

* * *

Plasma Stability (37° C.) % Remaining (3-3.5 hours) nude mouse listing for selected compounds.
Assay: Plasma Stability (37° C.), nude mouse
METRIC: Plasma Stability (37° C.) % Remaining (3-3.5 hours) nude mouse (%)

MOLECULAR STRING: COc1ccc2c(c1)c(/C=C1\Oc3cc(OC(=O)N(C)c4ccccc4)cc(OC(=O)N(C)c4ccccc4)c3C1=O)cn2CCCN(C)C
UNITS TEXT: %
VALUE REPORTED: 10

MOLECULAR STRING: COc1ccc2c(c1)c(/C=C1\Oc3cc(OC(=O)N(C)c4ccccc4)ccc3C1=O)c(C)n2CCN1CCN(C)CC1
UNITS TEXT: %
VALUE REPORTED: 19

MOLECULAR STRING: COc1ccc2c(c1)c(/C=C1\Oc3cc(OC(=O)N(C)C)cc(OC(=O)N(C)C)c3C1=O)c(C)n2CCN1CCN(C)CC1
UNITS TEXT: %
VALUE REPORTED: 32

* * *

Experiment: Microsome Stability (15 min), human
Format: in vitro ADME
Conditions: microsomes, Phase I (NADPH), read-out: Microsome Stability (15 min) T ½ Phase I human
The following compounds are listed with their measured half-life values.
METRIC: half-life (min)

COMPOUND: CN(C)C(=O)Oc1cccc2c1C(=O)/C(=C/c1cn(C)c3nccc(N4CC5CCC(C4)O5)c13)O2 [Example 44]
METRIC: half-life
UNITS TEXT: min
QUALIFIER OPERATOR: =
VALUE REPORTED: 8
//
COMPOUND: CCOP(=O)(OCC)Oc1cc2c(c(OP(=O)(OCC)OCC)c1)C(=O)/C(=C/c1c(-c3ccccc3)[nH]c3ccc(OC)cc13)O2 [Example 32]
METRIC: half-life
UNITS TEXT: min
QUALIFIER OPERATOR: =
VALUE REPORTED: 2
//
COMPOUND: COc1ccc2[nH]c(-c3ccccc3)c(/C=C3\Oc4cc(OC(=O)N(C(C)C)C(C)C)cc(OC(=O)N(C(C)C)C(C)C)c4C3=O)c2c1 [Example 31]
METRIC: half-life
UNITS TEXT: min
QUALIFIER OPERATOR: =
VALUE REPORTED: 7
//
COMPOUND: CCOP(=O)(OCC)Oc1ccc2c(c1)O/C(=C\c1c(-c3ccccc3)[nH]c3ccc(OC)cc13)C2=O [Example 34]
METRIC: half-life
UNITS TEXT: min
QUALIFIER OPERATOR: =
VALUE REPORTED: 26
//
COMPOUND: COc1ccc2c(c1)c(/C=C1\Oc3cc(O)ccc3C1=O)c(C)n2CCN1CCN(C)CC1
METRIC: half-life
UNITS TEXT: min
QUALIFIER OPERATOR: =
VALUE REPORTED: 6
//
COMPOUND: COc1ccc2c(c1)c(/C=C1\Oc3cc(OC(=O)N(C(C)C)C(C)C)cc(OC(=O)N(C(C)C)C(C)C)c3C1=O)cn2CCCN(C)C [Example 4]
METRIC: half-life
UNITS TEXT: min
QUALIFIER OPERATOR: =
VALUE REPORTED: 6
//
COMPOUND: COc1ccc2[nH]c(-c3ccccc3)c(/C=C3\Oc4cc(OC(=O)N(c5ccccc5)c5ccccc5)ccc4C3=O)c2c1 [Example 20]
METRIC: half-life
UNITS TEXT: min
QUALIFIER OPERATOR: >
VALUE REPORTED: 30
